All values here come from ChEMBL document CHEMBL1201862.

Test system: SF-539
assay.summary: NCI tumour cell line growth inhibition, 48 h
Active and inactive are the calls of the source. Cut-off read from the data, not from the text of the source: active = GI50 up to about 1.1 µM and inactive = higher.
# Lookup of reported GI50 keyed by entry
endpoint.name: GI50

> print(dat)
                                   molecule  target.entity      observed.result
1  C=CCOC1=C(OCC=C)C(C2COC(C)(C)O2)OC1=O (centres undefined)         SF-539  > 100 µM (inactive)
2  O=C(NC12CC3CC(CC(C3)C1)C2)C(=O)c1c[nH]c2ccc([N+](=O)[O-])cc12         SF-539   46.1 µM (inactive)
3              COC(=O)Nc1nc2cc(Br)ccc2[nH]1         SF-539   22.6 µM (inactive)
4       Oc1cc(-c2ccc[nH]2)nc2cc3c(cc12)OCO3         SF-539   29.6 µM (inactive)
5      Cc1cccc2nc3c(C(=O)NCCN(C)C)cccc3cc12         SF-539   2.01 µM (inactive)
6  CN1CCCCC1CCN1c2ccccc2Sc2ccc([S+](C)[O-])cc21 (centres undefined)         SF-539  > 100 µM (inactive)
7  Cc1c(C(=O)CSc2nc3ccccc3[nH]2)c(=O)n(-c2ccccc2)n1C         SF-539  > 100 µM (inactive)
8  CCOC(=O)CC1(O)CCCCC1(Sc1ccc(C)cc1)Sc1ccc(C)cc1 (centres undefined)         SF-539  > 100 µM (inactive)
9  CCOC(=O)c1cnn2c1ncc1c(=O)n(NC(N)=O)ccc12         SF-539  > 100 µM (inactive)

---

# Lookup of reported GI50 keyed by entry
Tested on: NCI-H460
assay.summary: NCI tumour cell line growth inhibition, 48 h
Active and inactive are the calls of the source. Cut-off read from the data, not from the text of the source: active = GI50 up to about 1.1 µM and inactive = higher.
endpoint.name: GI50

> print(dat)
                                    compound      observed.result
 1           Nc1ncc(CN2CCCC2)c(-c2ccccc2O)n1  > 750 µM (inactive)
 2  C=CCN(N=O)C(=O)N(CCC)CCCCC(NC(C)=O)C(=O)NCc1ccccc1 (centres undefined)  > 100 µM (inactive)
 3  CCOC(=O)c1ccc(N(C)Cc2cnc3nc(N)nc(N)c3n2)cc1   9.79 µM (inactive)
 4   Cc1ccc(C)n1-n1c(Cc2ccc(Cl)cc2)n[nH]c1=O  > 100 µM (inactive)
 5  N#Cc1ccccc1NC(=O)C(=O)C1NC(=S)NC1=O (centres undefined)  > 100 µM (inactive)
 6  CC(=O)OCc1cc(OC(C)=O)c2cc3c(OC(C)=O)cccc3c(OC(C)=O)c2c1   5.65 µM (inactive)
 7  COc1ccc(N2C(=O)C(C)SC2c2cc3cc(Br)ccc3nc2Cl)cc1 (centres undefined)   30.9 µM (inactive)
 8  CC(=O)NNc1nc(C)c(C(=O)NNC(=O)C(=O)Nc2ccc(C)cc2[N+](=O)[O-])s1  > 100 µM (inactive)
 9  CC(=O)C(O)N1C(=O)C=CC1=O (centres undefined)   3.58 µM (inactive)
10  CCCCOC(=O)NC(Nc1ccc(S(=O)(=O)Nc2ccc(OC)nn2)cc1)(C(F)(F)F)C(F)(F)F  > 100 µM (inactive)
11  CCOC(=O)/C(C#N)=C/c1[nH]c(C(=O)OCc2ccccc2)c(C)c1C  > 100 µM (inactive)
12  Cc1ccc2c(c1)OC1Nc3ccccc3C1=C2O (centres undefined)   20.2 µM (inactive)
13  CC1(C)CC(=O)C(CC2C(=O)c3ccccc3C2=O)C(=O)C1  > 100 µM (inactive)
14  CC(C)=CCC/C(C)=C/CCC(C(=O)COCc1ccccc1)P1(=O)OC(C)(C)CN1C(C)(C)C (centres undefined)   52.2 µM (inactive)

---

Tested on: CCRF-CEM
assay.summary: NCI tumour cell line growth inhibition, 48 h
The source made the active and inactive calls. Rule as the data show it: active = GI50 up to about 1.1 µM and inactive = higher.
endpoint.name: GI50

> print(dat)
                                    compound      observed.result
 1  Cc1nc(-c2nc(C)c(C(=O)NN(C)C)s2)sc1C(=O)NN(C)C   31.2 µM (inactive)
 2  Cc1cc(Cl)ccc1NC1=NC(=O)C(CC(=O)Nc2cccc(Cl)c2)S1 (stereo not drawn)   22.6 µM (inactive)
 3  C=CS(=O)(=O)c1c2cc(OC)ccc2nc2ccc(OC)cc12   3.22 µM (inactive)
 4  O=C(COc1ccc(OCC(=O)N/N=C/c2ccc(-c3ccc(Cl)cc3Cl)o2)c(Cl)c1)N/N=C/c1ccc(-c2ccc(Cl)cc2Cl)o1   14.8 µM (inactive)
 5  O=[N+]([O-])c1ccc(S(=O)(=O)n2c3ccc(Br)cc3c3nc4ccccc4nc32)cc1   20.7 µM (inactive)
 6            CC(C)(C)OC(=O)N1CCC(C(=O)O)CC1  > 100 µM (inactive)
 7    O=C(Nc1nnn[nH]1)c1nc(O)cc(-c2ccccc2)n1  > 100 µM (inactive)
 8  Cc1c(N=C(S)Nc2ccc(Cl)cc2)c(=O)n(-c2ccccc2)n1C  > 100 µM (inactive)
 9  CCOC(=O)Cc1cc(=O)[nH]c(-n2[nH]c(C)c(CCO)c2=O)n1  > 100 µM (inactive)
10  COc1ccc(OC)c(C(Cc2ccnc3ccccc23)Cc2ccnc3ccccc23)c1   8.57 µM (inactive)
11  CN(C)c1ccc(/C=C(/NC(=O)c2ccccc2)C(=O)Nc2ccccc2C(=O)O)cc1  > 100 µM (inactive)
12  O=C1C(Cl)=C(c2ccc([N+](=O)[O-])cc2)C(=O)c2c(O)cccc21   1.55 µM (inactive)
13  COc1cc(C2c3cc4c(cc3OC3(O)COC(=O)C23)OCO4)cc(OC)c1OC (stereo not drawn)   34.7 µM (inactive)

---

# Lookup of reported GI50 keyed by entry
Tested on: NCI-H23
assay.summary: NCI tumour cell line growth inhibition, 48 h
Active and inactive are the calls of the source. Cut-off read from the data, not from the text of the source: active = GI50 up to about 1.1 µM and inactive = higher.
endpoint.name: GI50

> print(dat)
                                   molecule      observed.result
1                        CSc1nncc2[nH]cnc12  > 100 µM (inactive)
2                      CC#CC(=O)SCCNC(=O)CC   > 10 µM (inactive)
3  O=c1[nH]c(=O)n(C2CC(O)C(CO)O2)cc1/N=N/NCCCc1ccccc1 (stereo unspecified)  > 100 µM (inactive)
4  CC(=O)Nc1ccc(NCC(=O)Nn2cnc3ccc(S(=O)(=O)Nc4ccc(NC(C)=O)cc4)cc3c2=O)cc1  > 100 µM (inactive)
5  O=[N+]([O-])c1ccc2nc(Nc3ccccc3)c(Nc3ccccc3)nc2c1   1.17 µM (inactive)
6                   CSCCCS/C1=C/CCCCCCCCCC1  > 100 µM (inactive)

---

Test system: SNB-19
assay.summary: NCI tumour cell line growth inhibition, 48 h
The source made the active and inactive calls. Cut-off read from the data, not from the text of the source: active = GI50 up to about 1.1 µM and inactive = higher.
endpoint.name: GI50

> print(dat)
                                    compound  endpoint.name      observed.result
 1  COc1ccc(C2N(c3ccc(C)c(N=C=O)c3)C(=O)N3C(c4ccc(OC)cc4)N(c4ccc(C)c(N=C=O)c4)C(=O)N23)cc1 (stereo not given)           GI50  > 100 µM (inactive)
 2            CC(C)(C)OC(=O)N1CCC(C(=O)O)CC1           GI50  > 100 µM (inactive)
 3  CC(=N/N=C/c1ccccn1)/C(C)=N/N=C(C)/C(C)=N/N=C(C)/C(C)=N/N=C(C)/C(C)=N\N=C\c1ccccn1           GI50  > 100 µM (inactive)
 4  C=C1C(=O)OC2/C=C(\CO)C3OC3C3OC3(C)CC(OC(=O)/C(=C/C)COC(C)=O)C12 (stereo not given)           GI50   15.1 µM (inactive)
 5  Cc1ccc(NC(=O)CC(=O)N2N=C(c3ccccc3)C(/N=N/c3ccc(S(=O)(=O)CCOS(=O)(=O)O)cc3)C2=O)cc1 (stereo not given)           GI50  > 100 µM (inactive)
 6  COc1ccc(-n2cnc3c(NC(C)(C)C(=O)O)ncnc32)cc1           GI50  > 100 µM (inactive)
 7  CC(C)=CCC/C(C)=C/CCC(C(=O)COCc1ccccc1)P1(=O)OC(C)(C)CN1C(C)(C)C (stereo not given)           GI50  > 100 µM (inactive)
 8  N#Cc1c(-c2ccccc2)c(/C=N/c2ccc(Cl)cc2)c(=O)n2c1[nH]c1ccccc12           GI50  > 100 µM (inactive)
 9      CSC1=C(C(=O)Nc2ccc(Cl)cc2)C(N)=NC1=O           GI50  > 100 µM (inactive)
10  COc1ccc2[nH]c3c(O)c(-c4c(C)cc5c([nH]c6ccc(OC)cc65)c4O)c(C)cc3c2c1           GI50   4.69 µM (inactive)
